Target: T1, hOX40-EC-His (human, UniProt P43489 29-214)
T1 construct: extracellular domain; bought protein; also called recombinant human OX40 antigen protein; human OX40 extracellular segment antigen; not shown: 6 His label
T1 sequence (looked up): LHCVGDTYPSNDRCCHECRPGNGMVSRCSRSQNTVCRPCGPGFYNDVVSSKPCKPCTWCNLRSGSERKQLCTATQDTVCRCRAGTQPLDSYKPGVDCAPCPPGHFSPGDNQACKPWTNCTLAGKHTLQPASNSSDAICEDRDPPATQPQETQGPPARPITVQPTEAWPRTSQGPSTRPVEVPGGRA
Assay: ELISA, supernatant 1:100, coated hOX40-EC-His
# maps each entry to its IgG ELISA (1:100)

- BINDER: "14D3-7-3 (antibody, V domains shown, hybridoma antibody, tested as culture supernatant) VH: EVQLVESGGGLVKPGGSLRLSCAASGFTFSNAWMSWVRQAPGKGLEWVGRIKRKTDGGTTDYATPVKGRFTISRDASKNTLYLQMNSLKTEDTAVYYCTSAARRGYFDIWGRGTLVTVSS VL: EIVLTQSPGTLSLSPGERATLSCRASQSVSSRYLAWYQQKPGQAPRLLIYGASNRATGMPDRFSGSGSGTDFTLTISRLEPEDFAMYYCQQYGSSPITFGQGTRLEIKR"
  ASSAY METRIC: "IgG ELISA (1:100)"
  OBSERVED: "2.2 OD650"

Fill in: IgG ELISA (1:100) of 38D9-12 (antibody, V domains shown, hybridoma antibody, tested as culture supernatant) VH: QVQLQESGPGLVKPSGTLSLTCAVSGDSISSTNWWSWVRQPPGKGLEWIGEINHNGSTYYNPSLKSRVTISVDKSKNQFSLKLRSVTAADTAVYYCAREDYYYMDVWGKGTTVTVSS VL: DIQMTQSPSSLSASVGDRVTITCRTSQGIWNDLGWYQQKPGKAPKRLIYAASSLQSGVPSRFSGSESGTEFTLTISSLQPEDFATYYCLQYNNYPLTFGGGTKVEIKR is ___
2.4 OD650

Fill in: IgG ELISA (1:100) of 24B9-10 (antibody, V domains shown, hybridoma antibody, tested as culture supernatant) VH: QVQLQESGPGLVKPSGTLSLTCAVSGGSISSSNWWTWVRQPPGKGLEWIGEIYHSGSTNYNPSLKSRVTISVDKSKNQFSLKLSSVTAADTAVYYCARTGPIVTTEYWGQGTLVTVSS VL: EIVLTQSPGTLSLSPGERATLSCRASQSVSSGYLAWYQQKPGQAPRLLIYGASIRATGIPDRFSGSGSGTDFTLTISRLEPEDFALYYCQQYGSSPLTFGGGTKVEIKR is ___
0.2 OD650

Fill in: IgG ELISA (1:100) of 23C4-1-5 (antibody, V domains shown, hybridoma antibody, tested as culture supernatant) VH: QVQLQESGPGLVKPSGTLSLTCAVSGGSISSSNWWSWVRQPPGKGLEWIGEIYHSGSTTYNPSLKSRVTISVDKSKSQISLKLTSVTAADTAVYYCARGDVLLWFGGRGTLVTVSS VL: EIVLTQSPGTLSLSPGERASLSCRASQSVSSNYLAWYQQKPGQTPRLLIYGASIRATGIPDRFSGSGSGTDFTLIISRLEPEDFAVYYCQQYSSSPITFGQGTRLEIKR is ___
2.4 OD650
